Cited source: the supplement of paper PMC9732359

test: protein stability index of a GFP-peptide fusion (yeast GPS) (PSI 1-4); higher = more stable; sorted into four equal gates, so the index is relative within each strain; conditions: pdr5∆
readout-type: protein stability index
Answers are plain numbers.

Would you please look over these solved cases?
                   residue_sequence  observed
0          DSRKNREQSSNDSETHT [BRN1]      3.34
1  LLREKQRVRNMRELGLI [YOR098C/NUP1]      1.14
2          MKDRLVEWNDQVEKLGK [RPN9]      3.06
3        TLDVEAFKSVVSTETFE [RPL27A]      2.74
4          KEALQNNIFKEFTSKIG [SMC1]       2.3

For each entry beneath this line, provide reported protein stability index.
1. KNAQYHLLVKQGDGLLT [RPN7]
2. DFDLLNKTLTFETETEV [FAS1]
3. ICNTLNIAKDLKWKKGI [SMC1]
4. KIVVVRAEALNISGEFF [RPL16B]
5. EITGTSCLTFFQALDSE [ITC1]

1. 1.61
2. 3.37
3. 1.26
4. 2.79
5. 2.78

---

assay: protein stability index of a GFP-peptide fusion (yeast GPS) (PSI 1-4); higher = more stable; sorted into four equal gates, so the index is relative within each strain; conditions: ubr1∆
readout-type: protein stability index
Give bare numbers.

>>> print(df.to_string())
            residue_sequence  observed
0  KDNAKISNNLALVFAAL [SRP68]      2.17
1   IEINEDNSQDDQDRGAA [RRI2]      3.04
2   EPLAIALSMGKSSAFVI [ARP7]      1.77
3   QKTVNLKNIMKVSDPYV [RPN4]      1.82

For each entry beneath this line, provide reported protein stability index.
1. NINNSSVAEKEEIRSQI [SWI3]
2. ATPQEAQFYLGKRIAYV [RPL33B]
3. SKTWETYEMRIHKRYID [RPS20]
4. LGLYVGVDDQILATNSL [YJL039C/NUP192]

2.51
2.43
3.21
1.73

For each entry beneath this line, provide reported protein stability index.
1. LLNILSGLPTCDYYNTF [RPN2]
2. KEYENHSGELMRQQSKE [SMC1]
3. LFQNVPEQGEEPMKQLN [YAR002W/NUP60]
4. VVYHPSNNELVRTNTLT [RPS8A]
5. SRRPEPKKFGGKGARSR [RPS16A]
6. LILAGQVKVKGQLGEMA [YCS4]

2.3
3
3.17
2.65
3.06
2.87

---

assay: protein stability index of a GFP-peptide fusion (yeast GPS) (PSI 1-4); higher = more stable; sorted into four equal gates, so the index is relative within each strain; conditions: pdr5∆
Would you please tag the item yes (1) when its protein stability index is 3 or above, and no (0) when it is below?

>>> print(df.to_string())
           residue_sequence  classification
0  SIIGNKNNNYTWEECVF [REC8]          no (0)

Record SKRSKIDIINKLILHAI [YML103C/NUP188] ; criterion: protein stability index no lower than 3. Met?
no (0)

Record KMELVYVSDSDDSSSDN [SIR4] ; criterion: protein stability index no lower than 3. Met?
no (0)

Record TGSLMGGNSTQNTSNMN [YGR119C/NUP57] ; criterion: protein stability index no lower than 3. Met?
yes (1)
